System: HCI-002 (organoid from a triple-negative breast cancer xenograft)
test.method.notes: CTG-3D luminescence at 96 h relative to day-0 seeding control (ratio to day 0); higher = more growth / less cytotoxicity; PDxO 3D drug screen (set 2), 96 h, CTG-3D normalised to day-0 seeding control.
condition.notes: 0.1 µM; days in culture: 168
readout: CTG-3D luminescence at 96 h
Numbers only.

# example entries with known answers
Exercise: Name the recorded CTG-3D luminescence at 96 h of the compound listed here: `CC(=O)O[C@@]12CO[C@@H]1C[C@H](O)[C@@]1(C)C(=O)[C@H](O)C3=C(C)[C@@H](OC(=O)[C@H](O)[C@@H](NC(=O)OC(C)(C)C)c4ccccc4)C[C@@](O)([C@@H](OC(=O)c4ccccc4)[C@H]21)C3(C)C`
Key: 0.281

Exercise: Name the recorded CTG-3D luminescence at 96 h of the compound listed here: `CCOc1ccn(-c2ccc(F)cc2)c(=O)c1C(=O)Nc1ccc(Oc2ccnc(N)c2Cl)c(F)c1`
Key: 3.38

Exercise: Name the recorded CTG-3D luminescence at 96 h of the compound listed here: `C[C@@H](Nc1cc(F)cc(F)c1)c1cc(C(=O)N(C)C)cc2c(=O)cc(N3CCOCC3)oc12`
Key: 3.62

Could you now look at the following compound, please?
Exercise: Name the recorded CTG-3D luminescence at 96 h of the compound listed here: `CC(=O)c1c(C)c2cnc(Nc3ccc(N4CCNCC4)cn3)nc2n(C2CCCC2)c1=O`
Key: 2.95

* * *

Exercise: state measured CTG-3D luminescence at 96 h for each of the compounds provided.
Test system: HCI-015 (organoid from a triple-negative breast cancer xenograft)
test.method.notes: CTG-3D luminescence at 96 h relative to day-0 seeding control (ratio to day 0); higher = more growth / less cytotoxicity; PDxO 3D drug screen, 96 h, CTG-3D normalised to day-0 seeding control.
condition.notes: 1 µM; days in culture: 172

Exercise: Name the recorded CTG-3D luminescence at 96 h of the compound listed here: C[C@H](NC(=O)CCC(F)(F)F)C(=O)N[C@@H]1C(=O)N(CCO)c2ncccc2-c2ccccc21 [crenigacestat]
Key: 0.872

Exercise: Name the recorded CTG-3D luminescence at 96 h of the compound listed here: NC1(C(=O)N[C@@H](CCO)c2ccc(Cl)cc2)CCN(c2nc[nH]c3nccc2-3)CC1 [capivasertib]
Key: 1.2

Exercise: Name the recorded CTG-3D luminescence at 96 h of the compound listed here: Cc1cc(Nc2ncnc3ccc(NC4=NC(C)(C)CO4)cc23)ccc1Oc1ccn2ncnc2c1 [tucatinib]
Key: 1.91

Exercise: Name the recorded CTG-3D luminescence at 96 h of the compound listed here: CN(Cc1cnc2nc(N)nc(N)c2n1)c1ccc(C(=O)N[C@@H](CCC(=O)O)C(=O)O)cc1 [methotrexate]
Key: 1.55

Exercise: Name the recorded CTG-3D luminescence at 96 h of the compound listed here: O=C(/C=C/c1cccnc1)NCCCCC1CCN(C(=O)c2ccccc2)CC1 [FK866]
Key: 0.213

Exercise: Name the recorded CTG-3D luminescence at 96 h of the compound listed here: C=CCn1c(=O)c2cnc(Nc3ccc(N4CCN(C)CC4)cc3)nc2n1-c1cccc(C(C)(C)O)n1 [adavosertib]
Key: 1.39

Exercise: Name the recorded CTG-3D luminescence at 96 h of the compound listed here: CC(C)n1nc(-c2ccc3oc(N)nc3c2)c2c(N)ncnc21 [sapanisertib]
Key: 0.765

Exercise: Name the recorded CTG-3D luminescence at 96 h of the compound listed here: CCN1CCN(Cc2ccc(Nc3ncc(F)c(-c4cc(F)c5nc(C)n(C(C)C)c5c4)n3)nc2)CC1 [abemaciclib]
Key: 1.52

Exercise: Name the recorded CTG-3D luminescence at 96 h of the compound listed here: Nc1ccn([C@@H]2O[C@H](CO)[C@@H](O)C2(F)F)c(=O)n1 [gemcitabine]
Key: 0.123

Exercise: Name the recorded CTG-3D luminescence at 96 h of the compound listed here: NC(=O)c1cccc2cn(-c3ccc([C@@H]4CCCNC4)cc3)nc12 [niraparib]
Key: 0.847

Fill in CTG-3D luminescence at 96 h for each of the 2 compounds listed.
1. COc1cccc2c1C(=O)c1c(O)c3c(c(O)c1C2=O)C[C@@](O)(C(=O)CO)C[C@@H]3O[C@H]1C[C@H](N)[C@H](O)[C@H](C)O1 [doxorubicin]
2. CC1(C)CCC(c2ccc(Cl)cc2)=C(CN2CCN(c3ccc(C(=O)NS(=O)(=O)c4ccc(N[C@H](CCN5CCOCC5)CSc5ccccc5)c(S(=O)(=O)C(F)(F)F)c4)cc3)CC2)C1 [navitoclax]

Key:
0.0852
1.99

* * *

Exercise: state measured CTG-3D luminescence at 96 h for each of the molecules provided.
System: MDA-MB-231
test.method.notes: CTG-3D luminescence at 96 h relative to day-0 seeding control (ratio to day 0); higher = more growth / less cytotoxicity; PDxO 3D drug screen, 96 h, CTG-3D normalised to day-0 seeding control.
condition.notes: 0.1 µM
Numbers only.

Exercise: Name the recorded CTG-3D luminescence at 96 h of the molecule listed here: Nc1ccn([C@@H]2O[C@H](CO)[C@@H](O)C2(F)F)c(=O)n1 [gemcitabine]
Key: 2.62

Exercise: Name the recorded CTG-3D luminescence at 96 h of the molecule listed here: COc1cccc2c1C(=O)c1c(O)c3c(c(O)c1C2=O)C[C@@](O)(C(=O)CO)C[C@@H]3O[C@H]1C[C@H](N)[C@H](O)[C@H](C)O1 [doxorubicin]
Key: 3.75

Exercise: Name the recorded CTG-3D luminescence at 96 h of the molecule listed here: Cc1nc(-c2cn3c(n2)-c2ccc(-c4cnn(C(C)(C)C(N)=O)c4)cc2OCC3)n(C(C)C)n1 [taselisib]
Key: 4.29

Exercise: Name the recorded CTG-3D luminescence at 96 h of the molecule listed here: CS(=O)(=O)c1ccc(C(=O)Nc2ccc(Cl)c(-c3ccccn3)c2)c(Cl)c1 [vismodegib]
Key: 4.53

Exercise: Name the recorded CTG-3D luminescence at 96 h of the molecule listed here: NC(=O)Nc1cc(-c2cccc(F)c2)sc1C(=O)N[C@H]1CCCNC1 [AZD7762]
Key: 3.96

More entries:
Exercise: Name the recorded CTG-3D luminescence at 96 h of the molecule listed here: CN(Cc1cnc2nc(N)nc(N)c2n1)c1ccc(C(=O)N[C@@H](CCC(=O)O)C(=O)O)cc1 [methotrexate]
Key: 4.37

* * *

System: HCI-016 (organoid from a triple-negative breast cancer xenograft)
test.method.notes: CTG-3D luminescence at 96 h relative to day-0 seeding control (ratio to day 0); higher = more growth / less cytotoxicity; PDxO 3D drug screen, 96 h, CTG-3D normalised to day-0 seeding control.
condition.notes: 0.1 µM; days in culture: 153
readout: CTG-3D luminescence at 96 h
Numbers only.

Exercise: Name the recorded CTG-3D luminescence at 96 h of the compound listed here: CC(C)n1nc(-c2ccc3oc(N)nc3c2)c2c(N)ncnc21 [sapanisertib]
Key: 0.842

Exercise: Name the recorded CTG-3D luminescence at 96 h of the compound listed here: O=C(O)C1(C(=O)O)CCC1.[NH2-].[NH2-].[Pt+2] [carboplatin]
Key: 2.2

Exercise: Name the recorded CTG-3D luminescence at 96 h of the compound listed here: O=C(c1ccc(F)c(F)c1Nc1ccc(I)cc1F)N1CC(O)([C@@H]2CCCCN2)C1 [cobimetinib]
Key: 1.1

Fill in CTG-3D luminescence at 96 h for each of the 6 compounds listed.
1. CN(Cc1cnc2nc(N)nc(N)c2n1)c1ccc(C(=O)N[C@@H](CCC(=O)O)C(=O)O)cc1 [methotrexate]
2. NC(=O)c1cccc2cn(-c3ccc([C@@H]4CCCNC4)cc3)nc12 [niraparib]
3. CCN1CCN(Cc2ccc(Nc3ncc(F)c(-c4cc(F)c5nc(C)n(C(C)C)c5c4)n3)nc2)CC1 [abemaciclib]
4. NC1(C(=O)N[C@@H](CCO)c2ccc(Cl)cc2)CCN(c2nc[nH]c3nccc2-3)CC1 [capivasertib]
5. CS(=O)(=O)c1ccc(C(=O)Nc2ccc(Cl)c(-c3ccccn3)c2)c(Cl)c1 [vismodegib]
6. COc1cccc2c1C(=O)c1c(O)c3c(c(O)c1C2=O)C[C@@](O)(C(=O)CO)C[C@@H]3O[C@H]1C[C@H](N)[C@H](O)[C@H](C)O1 [doxorubicin]

Key:
1. 1.65
2. 1.82
3. 1.71
4. 2.32
5. 1.54
6. 0.665

Exercise: Name the recorded CTG-3D luminescence at 96 h of the compound listed here: Cc1cc(Nc2ncc(Cl)c(Nc3ccccc3S(=O)(=O)C(C)C)n2)c(OC(C)C)cc1C1CCNCC1 [ceritinib]
Key: 1.93

* * *

System: HCI-027 (organoid from a triple-negative breast cancer xenograft)
test.method.notes: CTG-3D luminescence at 96 h relative to day-0 seeding control (ratio to day 0); higher = more growth / less cytotoxicity; PDxO 3D drug screen, 96 h, CTG-3D normalised to day-0 seeding control.
condition.notes: 0.005 µM; days in culture: 176
readout: CTG-3D luminescence at 96 h

Exercise: Name the recorded CTG-3D luminescence at 96 h of the molecule listed here: NC1(C(=O)N[C@@H](CCO)c2ccc(Cl)cc2)CCN(c2nc[nH]c3nccc2-3)CC1 [capivasertib]
Key: 2.32

Fill in CTG-3D luminescence at 96 h for each of the 5 molecules listed.
1. Cc1cc(Nc2ncnc3ccc(NC4=NC(C)(C)CO4)cc23)ccc1Oc1ccn2ncnc2c1 [tucatinib]
2. COc1cccc2c1C(=O)c1c(O)c3c(c(O)c1C2=O)C[C@@](O)(C(=O)CO)C[C@@H]3O[C@H]1C[C@H](N)[C@H](O)[C@H](C)O1 [doxorubicin]
3. CCN(c1cc(C#CCN2CCOCC2)cc(C(=O)NCc2c(C)cc(C)[nH]c2=O)c1C)[C@H]1CC[C@H](N(C)CCOC)CC1
4. C[C@@H]1COCCN1c1cc(C2([S@](C)(=N)=O)CC2)nc(-c2cc[nH]c3nccc2-3)n1 [ceralasertib]
5. CCN1CCN(Cc2ccc(Nc3ncc(F)c(-c4cc(F)c5nc(C)n(C(C)C)c5c4)n3)nc2)CC1 [abemaciclib]

Key:
1: 2.9; 2: 1.87; 3: 3.35; 4: 2.33; 5: 2.54
